- assayName: NCI Yeast Anticancer Drug Screen. Data for the mlh1 rad18 strain (AID 175)
- recordedConditions: S. cerevisiae mlh1 rad18 strain growth inhibition; at 50.0 µM; stronger effect = higher value
- Description: Growth inhibition of yeast strains with defined genetic alterations is measured as a screen for potential anti-cancer activity. Selected strains with alterations in DNA damage repair or cell cycle control were exposed to compounds and growth inhibition was measured relative to vehicle treated controls. The strain used in this assay is mlh1 rad18
The panel holds about 79,000 compounds, 15% with a hit somewhere; the sample as a whole holds those more often. Where a SMILES comes first, the peptide text is derived from it. [ ]: non-standard residue; d: D form. The star is where a group is joined. Cbz = O=C(OCc1ccccc1)*; Nva = CCC[CH](N)C(=O)O
Overview of reported growth inhibition across a group of compounds:

compound	growth inhibition, %
Cc1cccc(NC(=O)c2ccc(Cl)c(Cl)c2)c1	-8.65
Cc1ccc(NC(=O)C(=O)CC(=O)c2c(C)n([O-])c3ccccc3[n+]2=O)cc1	17.4
CC1=C[C@@H]2[C@@H](CC(CO)=C[C@H]3[C@@H]4C(C)(C)[C@]4(OCC(C)C)[C@H](OCC(C)C)[C@@H](C)[C@]23O)C1=O	-13.9
CC1=CC(=O)N2[C@H](OC[C@@H]2C(C)C)O1	9.5
CCCC(C)C1(CC)NC(C)(C)CC(C)O1 (configuration not stated)	1.2
Nc1ccc(O)c(N=Nc2ccc(S(N)(=O)=O)cc2)c1	10.1
O=S=NCCCl	0.35
O=C(O)CCCCCC1=CCCCC1	23.5
Nc1ccc(-c2c[nH]c(=O)c([N+](=O)[O-])c2)cc1	-6.4
CCCC(NC(=O)OCc1ccccc1)C(=O)NC(Cc1ccc(O)cc1)C(=O)O (configuration not stated) (Cbz-[Nva]-Tyr-OH; configuration not given here)	10
COC(=O)C1CCCC2(C1)OCCO2 (configuration not stated)	-2.75
CC(=O)[O-].Cc1ccnc(NS(=O)(=O)c2ccc(N=Cc3ccccc3[O-])cc2)n1.Cc1ccnc(NS(=O)(=O)c2ccc(N=Cc3ccccc3[O-])cc2)n1.[Cu+2]	34.4
CCN(CC)CCN(C)C(O)(C(=O)c1ccccc1)C1CCCC1 (configuration not stated)	32
Cc1ccc(SCCCN(C)C)cc1	16.3
CCOC(=O)C1=NN(c2ccccc2)C(=O)/C1=C\N1C(=S)NC(=O)/C1=C\c1cccc([N+](=O)[O-])c1	-4.8
O=C(Nc1cc([N+](=O)[O-])ccc1Cl)c1ccc(F)cc1	19.8
CCCCCCCCCCCCn1c2nc(=O)[nH]c(=O)c-2nc2ccccc21	-26.1
COc1cc(/C=C/Cc2cc3c(cc2O)OCO3)cc(OC)c1OC	0.75
O=Cc1c[nH]c2ccccc12	6.25
Cc1ccc(C2[C@H]3C(=O)N(c4ccc(Cc5ccc(N6C(=O)[C@@H]7ON(c8ccccc8)C(c8ccc(C)cc8)[C@@H]7C6=O)cc5)cc4)C(=O)[C@H]3ON2c2ccccc2)cc1 (some centres not stated)	-10.8
C=CC(=O)OCCC#N	5.45
O=c1[nH]ncn2nc3ccccc3c12	8.15

###

- assayName: NCI Yeast Anticancer Drug Screen. Data for the cln2 rad14 strain (AID 165);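 further: 0% = growth equal to vehicle treated cultures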
- recordedConditions: S. cerevisiae cln2 rad14 strain, at 50.0 µM, stronger effect = higher value
About 79,000 compounds went through this panel and 15% of them were active in at least one assay; those are over-represented in the sample as a whole. Where a SMILES comes first, the peptide text is derived from it. [ ]: non-standard residue; d: D form. The star is where a group is joined. ξ: configuration not given here. Boc = CC(C)(C)OC(=O)*; ξV = CC(C)C(N)C(=O)O; OBn = c1ccc(CO*)cc1
Here, each record is paired with measured growth inhibition data.
attributeMeasured: growth inhibition (%)

molecule	unitsText	quantitativeResult
N/N=C/c1cccn1-c1ccccc1Cl	%	0.35
CC(C)C(NC(=O)OC(C)(C)C)C(=O)NCC(=O)OCc1ccccc1 (centres undefined) (Boc-[ξV]-Gly-OBn)	%	-3.3
Cc1cc2c(=O)cc(-c3ccc(Cl)cc3Cl)oc2c(C(=O)O)c1C	%	23.6
CCN(CC)c1ccc2c(c1)C(O)c1ccccc1-2 (centres undefined)	%	-12.4
O=C(NNC(=S)Nc1ccc(Cl)cc1)C12CC3CC(CC(C3)C1)C2	%	17.4
CCc1cc(CN2CCN(CCO)CC2)c(O)c(CN2CCN(CCO)CC2)c1	%	3
Cc1cc(C)c(S(=O)(=O)ONC(=O)OC(C)(C)C)c(C)c1	%	4.9
CC1(C)CN2C(c3ccccc3)=NN(c3ccccc3)C2(C)C1 (centres undefined)	%	-23.1
Cc1ccc(S(=O)(=O)Nc2nc3ccccc3c(=O)n2C2CCCCC2)cc1	%	2.1
O=C(O)c1ccncc1C(=O)c1csc2ccccc12	%	22.1
COCN1COCN(C)C1=O	%	11.6
O=S(=O)(O)c1cc(O)ccc1O.O=S(=O)(O)c1cc(O)ccc1O.[NH-]C1CCCCC1[NH-].[Pt+2]	%	4.8
O=Cc1ccc(O)cn1	%	-11.9
NC(=O)/C(=C\c1ccncc1)c1cccc2ccccc12	%	-3.35
OCCNCc1cccc(-c2ccccc2)c1O	%	-18.8
COc1cccc2c1C(=O)c1c(C)c(C)c(C)c(C)c1-2	%	-1.7
CSc1nc(NC2OC(COC(C)=O)C(OC(C)=O)C(OC(C)=O)C2OC(C)=O)c(-c2csc(N)n2)c(=O)n1C (centres undefined)	%	10.2
O=C1C2C3C=CC(CC3)C2C(=O)C2C3C=CC(C3)C12 (centres undefined)	%	-14.8
O=NN(CCCl)C(=O)NCc1ccc[n+]([O-])c1	%	4.25
COC(=O)c1nc(N)nc(C(=O)OC)c1C(=O)c1cccs1	%	-24.8
O=C(OCOC(=O)N1CCOCC1)N1CCOCC1	%	17.6
N#CC1(C#N)C(c2ccccc2)C1(C#N)C(N)=O (centres undefined)	%	-20.6
C=CCCC1CN2CCc3cc(OC)c(OC)cc3C2CC1=O (centres undefined)	%	-41.7
Cn1c(=O)cnc2c3ccccc3ccc21	%	15.8

Where do the numbers come from? From PubChem BioAssay (NCI).
